- stated conditions: in toluene, 303.15 K
assay endpoint: solubility (mole fraction)
Just the number, please, no unit after it.

What does the record list as solubility (mole fraction) for COC(=O)[C@H](N)c1ccccc1.Cl ?
2.3e-05

###

- stated conditions: in water, 323.15 K
assay endpoint: solubility (mole fraction)

What does the record list as solubility (mole fraction) for COC(=O)[C@H](N)c1ccccc1.Cl ?
0.086

###

- stated conditions: in water, 303.15 K
assay endpoint: solubility (mole fraction)
Just the number, please, no unit after it.

What does the record list as solubility (mole fraction) for COC(=O)[C@H](N)c1ccccc1.Cl ?
0.068

###

- stated conditions: in water, 333.15 K
assay endpoint: solubility (mole fraction)

What does the record list as solubility (mole fraction) for COC(=O)[C@H](N)c1ccccc1.Cl ?
0.095

###

- stated conditions: in methanol, 313.15 K
assay endpoint: solubility (mole fraction)
Just the number, please, no unit after it.

What does the record list as solubility (mole fraction) for COC(=O)[C@H](N)c1ccccc1.Cl ?
0.09

###

- stated conditions: in ethyl acetate, 313.15 K
assay endpoint: solubility (mole fraction)
Just the number, please, no unit after it.

What does the record list as solubility (mole fraction) for COC(=O)[C@H](N)c1ccccc1.Cl ?
0.00021

###

- stated conditions: in methanol, 303.15 K
assay endpoint: solubility (mole fraction)
Just the number, please, no unit after it.

What does the record list as solubility (mole fraction) for COC(=O)[C@H](N)c1ccccc1.Cl ?
0.085

###

- stated conditions: in ethyl acetate, 333.15 K
assay endpoint: solubility (mole fraction)
Just the number, please, no unit after it.

What does the record list as solubility (mole fraction) for COC(=O)[C@H](N)c1ccccc1.Cl ?
0.00029

###

- stated conditions: in methanol, 283.15 K
assay endpoint: solubility (mole fraction)
Just the number, please, no unit after it.

What does the record list as solubility (mole fraction) for COC(=O)[C@H](N)c1ccccc1.Cl ?
0.076

###

- stated conditions: in toluene, 333.15 K
assay endpoint: solubility (mole fraction)

What does the record list as solubility (mole fraction) for COC(=O)[C@H](N)c1ccccc1.Cl ?
5.6e-05

###

- stated conditions: in toluene, 313.15 K
assay endpoint: solubility (mole fraction)
Just the number, please, no unit after it.

What does the record list as solubility (mole fraction) for COC(=O)[C@H](N)c1ccccc1.Cl ?
3.3e-05

###

- stated conditions: in ethanol, 293.15 K
assay endpoint: solubility (mole fraction)
Just the number, please, no unit after it.

What does the record list as solubility (mole fraction) for COC(=O)[C@H](N)c1ccccc1.Cl ?
0.022

###

- stated conditions: in toluene, 293.15 K
assay endpoint: solubility (mole fraction)
Just the number, please, no unit after it.

What does the record list as solubility (mole fraction) for COC(=O)[C@H](N)c1ccccc1.Cl ?
1.5e-05

###

- stated conditions: in water, 313.15 K
assay endpoint: solubility (mole fraction)
Just the number, please, no unit after it.

What does the record list as solubility (mole fraction) for COC(=O)[C@H](N)c1ccccc1.Cl ?
0.077

###

- stated conditions: in water, 293.15 K
assay endpoint: solubility (mole fraction)
Just the number, please, no unit after it.

What does the record list as solubility (mole fraction) for COC(=O)[C@H](N)c1ccccc1.Cl ?
0.058

###

- stated conditions: in water, 283.15 K
assay endpoint: solubility (mole fraction)

What does the record list as solubility (mole fraction) for COC(=O)[C@H](N)c1ccccc1.Cl ?
0.045

###

- stated conditions: in ethanol, 313.15 K
assay endpoint: solubility (mole fraction)
Just the number, please, no unit after it.

What does the record list as solubility (mole fraction) for COC(=O)[C@H](N)c1ccccc1.Cl ?
0.033

###

- stated conditions: in ethanol, 323.15 K
assay endpoint: solubility (mole fraction)
Just the number, please, no unit after it.

What does the record list as solubility (mole fraction) for COC(=O)[C@H](N)c1ccccc1.Cl ?
0.037

###

- stated conditions: in ethanol, 303.15 K
assay endpoint: solubility (mole fraction)
Just the number, please, no unit after it.

What does the record list as solubility (mole fraction) for COC(=O)[C@H](N)c1ccccc1.Cl ?
0.028

###

- stated conditions: in methanol, 293.15 K
assay endpoint: solubility (mole fraction)
Just the number, please, no unit after it.

What does the record list as solubility (mole fraction) for COC(=O)[C@H](N)c1ccccc1.Cl ?
0.081

###

- stated conditions: in toluene, 323.15 K
assay endpoint: solubility (mole fraction)
Just the number, please, no unit after it.

What does the record list as solubility (mole fraction) for COC(=O)[C@H](N)c1ccccc1.Cl ?
4.4e-05

###

- stated conditions: in ethanol, 283.15 K
assay endpoint: solubility (mole fraction)
Just the number, please, no unit after it.

What does the record list as solubility (mole fraction) for COC(=O)[C@H](N)c1ccccc1.Cl ?
0.015

###

- stated conditions: in acetone, 293.15 K
assay endpoint: solubility (mole fraction)
Just the number, please, no unit after it.

What does the record list as solubility (mole fraction) for COC(=O)[C@H](N)c1ccccc1.Cl ?
3.6e-05

###

- stated conditions: in acetone, 313.15 K
assay endpoint: solubility (mole fraction)
Just the number, please, no unit after it.

What does the record list as solubility (mole fraction) for COC(=O)[C@H](N)c1ccccc1.Cl ?
0.00013

###

- stated conditions: in acetone, 333.15 K
assay endpoint: solubility (mole fraction)

What does the record list as solubility (mole fraction) for COC(=O)[C@H](N)c1ccccc1.Cl ?
0.00025

###

- stated conditions: in ethyl acetate, 293.15 K
assay endpoint: solubility (mole fraction)
Just the number, please, no unit after it.

What does the record list as solubility (mole fraction) for COC(=O)[C@H](N)c1ccccc1.Cl ?
8.5e-05

###

- stated conditions: in ethanol, 333.15 K
assay endpoint: solubility (mole fraction)
Just the number, please, no unit after it.

What does the record list as solubility (mole fraction) for COC(=O)[C@H](N)c1ccccc1.Cl ?
0.042

###

- stated conditions: in methanol, 323.15 K
assay endpoint: solubility (mole fraction)

What does the record list as solubility (mole fraction) for COC(=O)[C@H](N)c1ccccc1.Cl ?
0.096
